Target: hMC3-R (human) (UniProt P41968)
Sequence (P41968 whole entry): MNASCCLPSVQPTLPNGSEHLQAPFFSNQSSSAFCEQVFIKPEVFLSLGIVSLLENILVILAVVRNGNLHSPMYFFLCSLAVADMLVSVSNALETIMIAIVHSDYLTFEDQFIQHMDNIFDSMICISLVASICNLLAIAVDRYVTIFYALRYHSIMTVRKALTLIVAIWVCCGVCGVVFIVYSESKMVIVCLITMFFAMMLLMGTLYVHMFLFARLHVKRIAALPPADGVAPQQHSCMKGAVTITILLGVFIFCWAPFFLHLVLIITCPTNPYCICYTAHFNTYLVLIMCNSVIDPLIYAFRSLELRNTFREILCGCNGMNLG
Assay: cell-based or functional assay
Bridge positions count the residues as written; N and C are the ends. Square brackets hold non-standard residues; d marks the D form. 1Nal = N[C@@H](Cc1cccc2ccccc12)C(=O)O; d2Nal = N[C@H](Cc1ccc2ccccc2c1)C(=O)O; Nle = CCCC[C@H](N)C(=O)O; Ahx = NCCCCCC(=O)O
Quantity name: cAMP Kb (nM)
Give bare numbers, in nM.

1) Ac-[Nle]C[dA]H[d2Nal]R[1Nal]C-NH2 (disulfide 2-8; SMILES CCCC[C@H](NC(C)=O)C(=O)N[C@H]1CSSC[C@@H](C(N)=O)NC(=O)[C@H](Cc2cccc3ccccc23)NC(=O)[C@H](CCCNC(=N)N)NC(=O)[C@@H](Cc2ccc3ccccc3c2)NC(=O)[C@H](Cc2c[nH]cn2)NC(=O)[C@@H](C)NC1=O) [Ac-Nle-c(Cys-D-Ala-His-D-2-Nal-Arg-1-Nal-Cys)-NH2]	61.5

Sample Ac-[Nle]CH[d2Nal]RW[Ahx]C-NH2 (disulfide 2-8) [Ac-Nle-c(Cys-His-D-2-Nal-Arg-Trp-Ahx-Cys)-NH2] ; cAMP Kb observed: 10.8

Hey, just so you know, these numbers are from patent US20120135923A1.
